STUDY TARGET: Toll-like receptor 7 (Homo sapiens) (UniProt Q9NYK1)
Sequence (Q9NYK1 whole entry): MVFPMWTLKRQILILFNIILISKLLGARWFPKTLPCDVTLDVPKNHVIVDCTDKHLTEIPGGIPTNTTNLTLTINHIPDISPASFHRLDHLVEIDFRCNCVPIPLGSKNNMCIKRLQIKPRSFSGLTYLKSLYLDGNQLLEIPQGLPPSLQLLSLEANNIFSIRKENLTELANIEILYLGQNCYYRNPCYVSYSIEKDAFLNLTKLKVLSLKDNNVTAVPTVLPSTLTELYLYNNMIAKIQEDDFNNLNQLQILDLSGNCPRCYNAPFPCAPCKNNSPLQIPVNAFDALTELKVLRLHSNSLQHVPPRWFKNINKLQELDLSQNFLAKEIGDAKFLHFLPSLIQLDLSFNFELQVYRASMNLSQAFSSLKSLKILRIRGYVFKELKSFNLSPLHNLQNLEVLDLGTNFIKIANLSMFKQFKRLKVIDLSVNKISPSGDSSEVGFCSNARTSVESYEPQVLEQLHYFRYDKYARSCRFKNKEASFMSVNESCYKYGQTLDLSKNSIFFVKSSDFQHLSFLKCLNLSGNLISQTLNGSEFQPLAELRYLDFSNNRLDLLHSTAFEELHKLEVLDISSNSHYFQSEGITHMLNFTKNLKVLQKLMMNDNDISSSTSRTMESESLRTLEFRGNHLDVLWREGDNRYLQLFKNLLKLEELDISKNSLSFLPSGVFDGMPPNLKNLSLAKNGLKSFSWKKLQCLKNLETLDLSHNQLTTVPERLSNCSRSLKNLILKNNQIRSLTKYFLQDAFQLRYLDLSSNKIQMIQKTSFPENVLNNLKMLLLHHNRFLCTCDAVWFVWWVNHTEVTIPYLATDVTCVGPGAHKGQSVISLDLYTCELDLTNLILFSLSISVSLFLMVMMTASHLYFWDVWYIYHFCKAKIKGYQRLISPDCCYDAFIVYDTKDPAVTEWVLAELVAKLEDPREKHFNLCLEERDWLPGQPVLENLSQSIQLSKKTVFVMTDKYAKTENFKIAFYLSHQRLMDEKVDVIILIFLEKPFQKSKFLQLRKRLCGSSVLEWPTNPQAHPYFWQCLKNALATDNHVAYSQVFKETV
ASSAY COMMENT: Agonist activity at human TLR7 expressed in HEK293 cells at 1 ng/ml by QUANTI-blue SEAP reporter gene assay
Type: cell-based
Active and inactive are the calls of the source. The rule behind the calls is not given here.
METRIC NAME: Activity

>>> val("CCCCOc1nc(N)c2nc(SCC(=O)O)n(Cc3ccccc3)c2n1")
"inactive"
>>> val("CCCCOc1nc(N)c2nc(SCc3ccc(C#N)cc3)n(Cc3ccccc3)c2n1")
"inactive"
>>> val("CCCCOc1nc(N)c2nc(OCc3ccccc3)n(Cc3ccccc3)c2n1")
"inactive"
>>> val("CCCCOc1nc(N)c2nc(SCCCCSc3nc4c(N)nc(OCCCC)nc4n3Cc3ccccc3)n(Cc3ccccc3)c2n1")
"inactive"

Activity lookup needed for CCCCOc1nc(N)c2nc(SCC(=O)OC(C)(C)C)n(Cc3ccccc3)c2n1 , thanks.
inactive
